Data credit: patent US12258337B2

# EC50 per entry
Target: mCX3CR1 (Mus musculus, UniProt Q9Z0D9)
Construct: stably expresses a Ca2+ sensitive photo-protein
Sequence (Q9Z0D9 1-354): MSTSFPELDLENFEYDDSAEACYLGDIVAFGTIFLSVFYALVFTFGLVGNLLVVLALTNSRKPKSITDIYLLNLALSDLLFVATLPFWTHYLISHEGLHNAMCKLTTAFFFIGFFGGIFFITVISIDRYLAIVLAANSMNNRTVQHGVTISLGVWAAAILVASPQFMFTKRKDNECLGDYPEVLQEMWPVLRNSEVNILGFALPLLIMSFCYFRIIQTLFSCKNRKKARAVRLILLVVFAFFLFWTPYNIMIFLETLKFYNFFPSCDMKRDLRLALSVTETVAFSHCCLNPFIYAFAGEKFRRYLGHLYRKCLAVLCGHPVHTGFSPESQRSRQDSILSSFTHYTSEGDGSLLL
Experiment: Ga16 assay, CX3CR1 agonism, Ca2+ sensitive photo-protein readout (FLIPRTETRA)
Conditions: mouse CX3CR1 cell line
property-measured: EC50 (µM)

>>> quantitative_result("O=C(NCC1(CN2CCCC2)CC1)c1cc2c(s1)CCCCCC2")
16.2
>>> quantitative_result("O=C(NCC1(CN2CCCC2)CCOC1)c1cc2c(s1)CCCCCC2 (stereo not drawn)")
9.6
>>> quantitative_result("CN(CCO)CC1(CNC(=O)c2cc3c(s2)CCCCC3)CCCC1")
46.9

* * *

# pEC50 per entry
Molecular target: hCX3CR1 (Homo sapiens, UniProt P49238)
Test: Ga16 assay, CX3CR1 agonism, Ca2+ sensitive photo-protein readout (FLIPRTETRA)
Type: cell-based
Design: expressed in transfected cells; stably expresses a Ca2+ sensitive photo-protein
Conditions: human CX3CR1 cell line
pEC50: −log10 of the molar value.
property-measured: pEC50

>>> quantitative_result("CN(CCO)CC1(CNC(=O)c2cc3c(s2)CCCCCCC3)CCCC1")
4.73
>>> quantitative_result("O=C(NCC1(CN2CCCC(O)C2)CCCC1)c1cc2c(s1)CCCCCC2 (stereo not shown)")
4.95
>>> quantitative_result("CC(C)(CNC(=O)c1cc2c(s1)CCCCCC2)CN1CCC(C)(O)CC1")
4.74
>>> quantitative_result("O=C(NCC1(CN2CCCCC2)CCCC1)c1cc2c(s1)CCCCCC2")
4.71
>>> quantitative_result("CN(CCO)CC1(CNC(=O)c2cc3c(s2)CCCCCC3)CCC1")
4.99
>>> quantitative_result("O=C(NCC1(CN2CCC(O)CC2)CCC1)c1cc2c(s1)CCCCCC2")
5.07
>>> quantitative_result("COC1CCCN(CC2(CNC(=O)c3cc4c(s3)CCCCCC4)CCC2)C1 (stereo not shown)")
4.86

* * *

# EC50 per entry
Molecular target: rCX3CR1 (Rattus norvegicus, UniProt P35411)
Construct: stably expresses a Ca2+ sensitive photo-protein
Sequence (P35411 whole entry): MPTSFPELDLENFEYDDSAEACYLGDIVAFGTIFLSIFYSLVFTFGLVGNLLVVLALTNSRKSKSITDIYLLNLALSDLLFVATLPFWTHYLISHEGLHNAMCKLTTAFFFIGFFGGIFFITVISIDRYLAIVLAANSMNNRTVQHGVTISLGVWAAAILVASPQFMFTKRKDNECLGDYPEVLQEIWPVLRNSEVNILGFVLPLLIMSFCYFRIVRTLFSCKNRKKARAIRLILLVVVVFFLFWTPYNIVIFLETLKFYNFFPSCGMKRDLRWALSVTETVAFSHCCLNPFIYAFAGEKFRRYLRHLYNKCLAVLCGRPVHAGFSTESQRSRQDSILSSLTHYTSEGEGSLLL
Test: Ga16 assay, CX3CR1 agonism, Ca2+ sensitive photo-protein readout (FLIPRTETRA)
Settings: rat CX3CR1 cell line
property-measured: EC50 (µM)

>>> quantitative_result("O=C(NCC1(CN2CCCC2)CCOC1)c1cc2c(s1)CCCCCC2 (stereo not drawn)")
10.9
>>> quantitative_result("O=C(NCC1(CN2CCCC2)CCCCC1)c1cc2c(s1)CCCCCC2")
23.7
>>> quantitative_result("O=C(NCC1(CN2CCC2)CCCC1)c1cc2c(s1)CCCCCC2")
9.3
>>> quantitative_result("CC(C)OC1CCCN(CC2(CNC(=O)c3cc4c(s3)CCCCCC4)CCC2)C1 (stereo not drawn)")
43.5
>>> quantitative_result("CN(C)CC1(CNC(=O)c2cc3c(s2)CCCCCC3)CC(F)(F)C1")
23.9
>>> quantitative_result("CN(C)CC1(CNC(=O)c2cc3c(s2)CCCCCC3)CCC1")
9.5
>>> quantitative_result("O=C(NCC1(CN2CCC(O)CC2)CCCOC1)c1cc2c(s1)CCCCCC2 (stereo not drawn)")
18.7
>>> quantitative_result("COC1(C)CCN(CC2(CNC(=O)c3cc4c(s3)CCCCCC4)CCC2)CC1")
13.7
>>> quantitative_result("O=C(NCC1(CN2CCCC2)CCCC1)c1cc2c(s1)CCCCCC2")
10.2
>>> quantitative_result("CN(C)CC1(CNC(=O)c2cc3c(s2)CCCCCC3)CC(O)C1 (stereo not drawn)")
14.8
>>> quantitative_result("CN(C)CC1(CNC(=O)c2ccc3c(c2)CCCCCC3)CCCC1")
22.7
>>> quantitative_result("O=C(NCC1(CN2CCC(O)C2)CCCC1)c1cc2c(s1)CCCCCC2 (racemic) [Example 25]")
23.1
>>> quantitative_result("CN(C)CC1(CNC(=O)c2cc3c(s2)CCCCCC3)CCOC1 (stereo not drawn)")
13.1
>>> quantitative_result("O=C(NCC1(CN2CCCC(O)C2)CCCC1)c1cc2c(s1)CCCCCC2 (stereo not drawn)")
10.8
>>> quantitative_result("O=C(NCC1(CN2CCCC2)CC1)c1cc2c(s1)CCCCCC2")
15.4

* * *

Biological target: hCX3CR1 (Homo sapiens, UniProt P49238)
Sequence (P49238 1-355): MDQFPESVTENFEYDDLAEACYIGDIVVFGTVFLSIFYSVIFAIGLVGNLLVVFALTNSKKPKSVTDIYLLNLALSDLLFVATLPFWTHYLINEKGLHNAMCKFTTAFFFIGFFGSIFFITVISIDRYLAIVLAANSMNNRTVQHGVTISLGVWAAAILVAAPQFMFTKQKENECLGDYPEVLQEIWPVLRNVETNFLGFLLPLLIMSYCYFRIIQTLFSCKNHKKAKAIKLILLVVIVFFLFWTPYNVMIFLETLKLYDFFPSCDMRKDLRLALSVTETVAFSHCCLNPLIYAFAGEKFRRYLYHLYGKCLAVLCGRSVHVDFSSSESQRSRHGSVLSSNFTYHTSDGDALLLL
Experiment: ChAMPion assay (CHO ChAMPion/CX3CR1 K1.6, cAMP/CNG channel, photoprotein luminescence)
Type: cell-based
Design: expressed in transfected cells; stably expresses a Ca2+ sensitive photo-protein
Details: ChAMPion assay, CHO ChAMPion/CX3CR1 K1.6, Forskolin 3 μM; read-out: hCX3CR1 agonism EC50
pEC50: −log10 of the molar value.
# pEC50 per entry
property-measured: pEC50

>>> quantitative_result("O=C(NCC1(CN2CCCC2)CCC1)c1cc2c(s1)CCCCCCC2")
5.37
>>> quantitative_result("CN(CCO)CC1(CNC(=O)c2cc3c(s2)CCCCCC3)CCC1")
6.22
>>> quantitative_result("O=C(NCC1(CN2CCCC2)CCOCC1)c1cc2c(s1)CCCCCC2")
5.77
>>> quantitative_result("O=C(NCC1(CN2CCC(O)C2)CCCC1)c1cc2c(s1)CCCCCC2 (racemic)")
6.15
>>> quantitative_result("CN(CCO)CC1(CNC(=O)c2cc3c(s2)CCCCC3)CCCC1")
4.44
>>> quantitative_result("CCC(CC)(CNC(=O)c1cc2c(s1)CCCCCC2)CN1CCCC1")
5.39
>>> quantitative_result("O=C(NCC1(CN2CCCC2)CC(O)C1)c1cc2c(s1)CCCCCC2 (stereo not drawn)")
6.19
>>> quantitative_result("CN(C)CC1(CNC(=O)c2cc3c(s2)CCCCCC3)CCCCC1")
5.89
>>> quantitative_result("CC(CNC(=O)c1cc2c(s1)CCCCCC2)CN(C)C (stereo not drawn)")
4.52
>>> quantitative_result("CN(C)CC(C)(C)CN(C)C(=O)c1cc2c(s1)CCCCCC2")
5.00
>>> quantitative_result("CN(C)CC1(CNC(=O)c2cc3c(s2)CCCCCC3)CCOCC1")
5.72
>>> quantitative_result("CCC(CC)(CNC(=O)c1cc2c(s1)CCCCCC2)CN(C)C")
4.95
>>> quantitative_result("CN(C)CC1(CNC(=O)c2cc3c(s2)CCCCCC3)CCC1")
5.85
>>> quantitative_result("O=C(NCC1(CN2CCC2)CCCC1)c1cc2c(s1)CCCCCC2")
5.80
>>> quantitative_result("CN(C)CC1(CNC(=O)c2cc3c(s2)CCCCCC3)CC(O)C1 (stereo not drawn)")
6.05
>>> quantitative_result("O=C(NCC1(CN2CCCC2)CC1)c1cc2c(s1)CCCCCC2")
5.55
>>> quantitative_result("CCN(CC)CC(C)(C)CNC(=O)c1cc2c(s1)CCCCCC2")
5.18
>>> quantitative_result("CN(CCO)CC1(CNC(=O)c2cc3c(s2)CCCCCC3)CCCC1")
5.89
>>> quantitative_result("CN(C)CC1(CNC(=O)c2cc3c(s2)CCCCCC3)Cc2ccccc2C1")
4.91
>>> quantitative_result("O=C(NCC1(CN2CCCC2)CCC1)c1cc2c(s1)CCCCCC2")
5.36
>>> quantitative_result("O=C(NCC1(CN2C[C@H]3CCO[C@@H]3C2)CCCC1)c1cc2c(s1)CCCCCC2")
5.26
>>> quantitative_result("O=C(NCC1(CN2CCCC(O)C2)CCCC1)c1cc2c(s1)CCCCCC2 (stereo not drawn)")
4.88
>>> quantitative_result("CC(C)(CNC(=O)c1cc2c(s1)CCCCCC2)CN1CCCCC1")
5.66
>>> quantitative_result("O=C(NCC1(CN2CCCCC2)CCCC1)c1cc2c(s1)CCCCCC2")
5.57
>>> quantitative_result("CN(C)CC1(CNC(=O)c2cc3c(s2)CCCCCC3)CCCC1")
5.89
>>> quantitative_result("O=C(NCC1(CN2CCC(O)CC2)CCCC1)c1cc2c(s1)CCCCCC2")
6.10
>>> quantitative_result("CC(C)(CNC(=O)c1cc2c(s1)CCCCCCC2)CN1CCCC1")
4.97
>>> quantitative_result("CCCN(C)CC1(CNC(=O)c2cc3c(s2)CCCCCC3)CCCC1")
5.35
>>> quantitative_result("CN(C)CC(C)(C)CNC(=O)c1cc2c(s1)CCCCCC2")
5.51
>>> quantitative_result("CN(CCO)CC1(CNC(=O)c2cc3c(s2)CCCCCCC3)CCCC1")
5.32
